# System Under Test: T1, IFIT5 WT (UniProt Q13325 1-482)
# T1 sequence: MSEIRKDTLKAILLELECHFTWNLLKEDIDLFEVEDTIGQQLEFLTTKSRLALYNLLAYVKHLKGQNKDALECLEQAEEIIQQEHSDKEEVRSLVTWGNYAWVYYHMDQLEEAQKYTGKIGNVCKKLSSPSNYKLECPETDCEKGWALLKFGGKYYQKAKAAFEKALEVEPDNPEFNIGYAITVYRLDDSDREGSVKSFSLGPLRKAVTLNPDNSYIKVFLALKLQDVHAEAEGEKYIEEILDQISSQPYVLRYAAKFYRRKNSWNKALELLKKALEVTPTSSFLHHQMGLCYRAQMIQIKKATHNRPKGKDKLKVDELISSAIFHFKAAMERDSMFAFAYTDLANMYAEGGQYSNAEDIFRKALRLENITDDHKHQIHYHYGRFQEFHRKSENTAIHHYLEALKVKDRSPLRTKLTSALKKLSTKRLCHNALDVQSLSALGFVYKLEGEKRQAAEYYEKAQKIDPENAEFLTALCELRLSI
# Method Summary: MST; apparent, single replicate; no Mg2+ (assignment by word order); MST: PBS, 5% glycerol, 0.5 mM TCEP, 0.05% Tween20, +/-1 mM MgCl2 (K150M always with 1 mM MgCl2), 10 nM Cy5-RNA, 22 C, 10 min incubation; pH not stated
# Condition Notes: protein: recombinant; tags: N-terminal His tag (pETG10a); label: 3'-Cy5; single strand, 12 nt

Binder	Unit Symbol	Kd
AAAAAGGAAGGU (ssRNA, 5'-triphosphate) [5'-ppp-AAAAAGGAAGGU-Cy5]	nM	8.87

Each recorded value in this set is attributed to paper PMC9677429.
